Test: chemical genetic growth profiling, strain panel (AID 1159580);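 also: tested at 20 µM; growth read once vehicle control cultures reached saturation at 30 °C; 1 = growth at the plate median or of vehicle wells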
Conditions: S. cerevisiae deletion strains, growth OD, locus YLR418C, strain cdc73, stronger effect = lower value
Hit rate of the full screen: of about 5,500 compounds, about 2,000 (36%) were called active. About 18% were inconclusive and are not listed. The list shows a part of the results.
// reported normalized growth for each item listed
Just the number.

Some solved cases for reference:
In [3]: df
Out[3]:
                                   molecule  property_measured  reported_value
0  O=C(O)CN(CC(=O)O)Cc1cc2c(-c3ccccc3C(=O)O)c3cc(CN(CC(=O)O)CC(=O)O)c(=O)cc-3oc2cc1O  normalized growth            1.03
1  CCC(C)(C)C(=O)O[C@H]1C[C@@H](C)C=C2C=C[C@H](C)[C@H](CC[C@@H]3C[C@@H](O)CC(=O)O3)[C@H]21  normalized growth           0.856
2  C[N+]1(C)C2CC(OC(=O)[C@@H](CO)c3ccccc3)CC1C1OC12 (stereo not given in full)  normalized growth            1.05

# molecule CC(C)NCC(O)c1cc(O)cc(O)c1 (stereo not given) ; its normalized growth = 0.984

# molecule `CN1C(C(=O)Nc2ccccn2)=C(O)c2ccccc2S1(=O)=O` ; its normalized growth = 0.905

###

Assay: chemical genetic growth profiling, strain panel (AID 1159580);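 also: tested at 20 µM; growth read once vehicle control cultures reached saturation at 30 °C; 1 = growth at the plate median or of vehicle wells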
Conditions: S. cerevisiae deletion strains, growth OD, locus YMR307W, strain GAS1, stronger effect = lower value
Out of some 5,500 compounds screened, about 2,000 (36%) were called active. Inconclusive results (about 18%) are left out. This is one part of the list.
Simple rule here: normalized growth less than 1 is satisfied, otherwise not satisfied.

compound	class.name
CC(C)C(C)/C=C/C(C)[C@H]1CCC2C3=CCC4CC(=O)CC[C@]4(C)C3CC[C@@]21C (some centres undefined)	not satisfied

Request: I wonder whether `Cc1onc(-c2c(F)cccc2Cl)c1C(=O)c1ccc(F)cc1` has normalized growth below 1. Can you tell?
Result: satisfied

Request: I wonder whether `COC(=O)c1sccc1NC(=O)C1CC1` has normalized growth below 1. Can you tell?
Result: not satisfied

Request: I wonder whether CC12NC(=O)NC1(C)NC(=O)N2 (centres undefined) has normalized growth below 1. Can you tell?
Result: not satisfied

Request: I wonder whether `Cc1cccc2c1N(C(=S)Nc1ccccc1Cl)CCC2` has normalized growth below 1. Can you tell?
Result: satisfied

Request: I wonder whether `COc1ccccc1N=C(N)SCc1ccccc1` has normalized growth below 1. Can you tell?
Result: not satisfied

Request: I wonder whether C[N+]1(C)C2CC(OC(=O)[C@H](CO)c3ccccc3)CC1C1OC12 (some centres undefined) has normalized growth below 1. Can you tell?
Result: satisfied

Request: I wonder whether `C=C1C(=O)O[C@@H]2C[C@@]3(C)CCC[C@H](C)C3=C[C@H]12` has normalized growth below 1. Can you tell?
Result: satisfied

Request: I wonder whether `CCNC(=O)CC[C@H](N)C(=O)O` has normalized growth below 1. Can you tell?
Result: not satisfied

Request: I wonder whether `CC(=O)CC(=O)Nc1ccccc1Cl` has normalized growth below 1. Can you tell?
Result: satisfied

Request: I wonder whether `O=[N+]([O-])c1ccc(N2CCCN(C(=S)Nc3ccc(Cl)cc3Cl)CC2)nc1` has normalized growth below 1. Can you tell?
Result: satisfied

Request: I wonder whether CC1OC1P(=O)(O)O (centres undefined) has normalized growth below 1. Can you tell?
Result: satisfied

Request: I wonder whether C[N+]1(C)C2CC(OC(=O)[C@@H](CO)c3ccccc3)CC1C1OC12 (some centres undefined) has normalized growth below 1. Can you tell?
Result: not satisfied

Request: I wonder whether `CC(C)C(=O)Nc1ccc([N+](=O)[O-])c(C(F)(F)F)c1` has normalized growth below 1. Can you tell?
Result: satisfied

Request: I wonder whether `O=C1NC(=O)C(=O)C(=O)N1` has normalized growth below 1. Can you tell?
Result: not satisfied

Origin of the recorded values: PubChem BioAssay AID1159580
